Each recorded value in this set is attributed to patent US20220356174A1.

- tested-on: UniProt:P51532
- method-notes: SMARCA4 ATPase activity assay (ADP-Glo, chicken mononucleosome substrate)
- protocol-conditions: FL-SMARCA4 IC>50, Table 3c.2; ATPase assay, enzyme 5 nM, ATP 250 uM, chicken mononucleosome 10 nM, 30 min preincubation
Binning of IC50 into classes: zone 1 = under 100 nM, zone 2 = from 100 nM up to 6000 nM, zone 3 = 6000 nM and over

Cc1ncc(C#Cc2cc(C(=O)Nc3cc(F)c(=O)n(CC(F)F)c3)sc2Cl)s1 [Compound 39c] | zone 2
O=C(Nc1cc(F)c(=O)n(CC(F)F)c1)c1cc(F)c(F)s1 [Compound 109c] | zone 2
O=C(Nc1cc(F)c(=O)n(CC(F)F)c1)c1sc(C(F)(F)F)cc1Cl [Compound 48c] | zone 3

Problem: Which bin, given its IC50, does O=C(Nc1cc(F)c(=O)n(CC(F)F)c1)c1nsc(Cl)n1 [Compound 76c] occupy?
Solution: zone 3

Problem: Now the molecule O=C(Nc1cc(F)c(=O)n(CC(F)F)c1)c1cc(C#CC2CCOC2)c(Cl)s1 (stereo not drawn) [Compound 58c]
Solution: zone 2

Problem: Next molecule: N#Cc1cccc(C#Cc2cc(C(=O)Nc3cc(F)c(=O)n(CC(F)F)c3)sc2Cl)c1 [Compound 34c]
Solution: zone 2

Problem: Then what about the molecule O=C(Nc1cc(F)c(=O)n(CC(F)CO)c1)c1cc(Cl)c(Cl)s1 (stereo not drawn) [Compound 50c] ?
Solution: zone 3

Problem: Quick one: O=C(Nc1cc(C#CC(F)(F)F)c(=O)n(CC(F)F)c1)c1cc(F)c(Cl)s1 [Compound 26c]
Solution: zone 3

Problem: Would you mind doing N#Cc1cc(C(=O)Nc2cc(F)c(=O)n(CC(F)F)c2)sc1C(F)(F)F [Compound 82c] as well?
Solution: zone 1

Problem: Thanks! And O=C(O)c1cccc(C#Cc2cc(C(=O)Nc3cc(F)c(=O)n(CC(F)F)c3)ccn2)c1 [Compound 132c] ?
Solution: zone 3

Problem: // next record O=C(Nc1cc(-c2ncco2)c(=O)n(CC(F)F)c1)c1cc(Cl)c(C(F)(F)F)s1 [Compound 102c]
Solution: zone 3

Problem: And what about the molecule O=C(Nc1cc(F)c(=O)n(CC(F)F)c1)c1cc(C#Cc2ccncc2)c(F)s1 [Compound 106c] ?
Solution: zone 1

Problem: // repeat for CC(=O)Nc1cccc(C#Cc2cc(C(=O)Nc3cc(F)c(=O)n(CC(F)F)c3)sc2Cl)c1 [Compound 75c] and report
Solution: zone 1

Problem: For Cn1ccc(C#Cc2cc(C(=O)Nc3cc(F)c(=O)n(CC(F)F)c3)sc2Cl)n1 [Compound 144c] then?
Solution: zone 1

Problem: Then this molecule: Cc1cnc(C#Cc2cc(C(=O)Nc3cc(F)c(=O)n(CC(F)F)c3)sc2Cl)s1 [Compound 70c]
Solution: zone 2

Problem: Same lookup for Cn1cnc(C#Cc2cc(C(=O)Nc3cc(F)c(=O)n(CC(F)F)c3)sc2Cl)n1 [Compound 67c] , please.
Solution: zone 2

Problem: Please answer likewise for O=C(Nc1cc(F)c(=O)n(CC(F)F)c1)c1cc(/C=C/c2cccnc2)c(Cl)s1 [Compound 95c]
Solution: zone 2

Problem: Could you do the same for O=C(Nc1cc(F)c(=O)n(CC(F)F)c1)c1cc(C#Cc2cccc(Cl)c2)c(Cl)s1 [Compound 56c] , please?
Solution: zone 2

Problem: Then O=C(Nc1cc(C#CCO)c(=O)n(CC(F)F)c1)c1cc(F)c(Cl)s1 ?
Solution: zone 3

Problem: Query CNCCCn1cc(NC(=O)c2cc(F)c(Cl)s2)cc(F)c1=O [Compound 53c] next
Solution: zone 3

Problem: Can you handle Cn1cnc(-c2cc(NC(=O)c3cc(Cl)c(C(F)(F)F)s3)cn(CC(F)F)c2=O)c1 [Compound 91c] next?
Solution: zone 3

Problem: Please do the same for O=C(Nc1cc(-c2c[nH]cn2)c(=O)n(CC(F)F)c1)c1cc(Cl)c(C(F)(F)F)s1 [Compound 104c] as well.
Solution: zone 3

Problem: Next: O=C(Nc1cc(F)c(=O)n(CC(F)F)c1)[C@H]1CCCN1 [Compound 16c]
Solution: zone 3

Problem: And what about the molecule CCn1cc(C#Cc2cc(C(=O)Nc3cc(F)c(=O)n(CC(F)F)c3)sc2Cl)cn1 [Compound 54c] ?
Solution: zone 2

Problem: Same question for O=C(Nc1cc(F)c(=O)n(CC(F)F)c1)c1cc(C#Cc2ccccn2)c(Cl)s1 [Compound 81c] please.
Solution: zone 2

Problem: Next molecule: Cn1cnc(-c2cc(NC(=O)c3sc(C(F)(F)F)cc3Cl)cn(CC(F)F)c2=O)c1 [Compound 27c]
Solution: zone 3

---

- tested-on: FL-SMARCA2 (full-length human SMARCA2 isoform 1) (Homo sapiens)
- Construct: FLAG tag (YKDDDDK) (C); made in house; host or cells: Sf21 insect cells (baculovirus, pFastBacI)
- Sequence (P51531 with tags, fused parts or gaps): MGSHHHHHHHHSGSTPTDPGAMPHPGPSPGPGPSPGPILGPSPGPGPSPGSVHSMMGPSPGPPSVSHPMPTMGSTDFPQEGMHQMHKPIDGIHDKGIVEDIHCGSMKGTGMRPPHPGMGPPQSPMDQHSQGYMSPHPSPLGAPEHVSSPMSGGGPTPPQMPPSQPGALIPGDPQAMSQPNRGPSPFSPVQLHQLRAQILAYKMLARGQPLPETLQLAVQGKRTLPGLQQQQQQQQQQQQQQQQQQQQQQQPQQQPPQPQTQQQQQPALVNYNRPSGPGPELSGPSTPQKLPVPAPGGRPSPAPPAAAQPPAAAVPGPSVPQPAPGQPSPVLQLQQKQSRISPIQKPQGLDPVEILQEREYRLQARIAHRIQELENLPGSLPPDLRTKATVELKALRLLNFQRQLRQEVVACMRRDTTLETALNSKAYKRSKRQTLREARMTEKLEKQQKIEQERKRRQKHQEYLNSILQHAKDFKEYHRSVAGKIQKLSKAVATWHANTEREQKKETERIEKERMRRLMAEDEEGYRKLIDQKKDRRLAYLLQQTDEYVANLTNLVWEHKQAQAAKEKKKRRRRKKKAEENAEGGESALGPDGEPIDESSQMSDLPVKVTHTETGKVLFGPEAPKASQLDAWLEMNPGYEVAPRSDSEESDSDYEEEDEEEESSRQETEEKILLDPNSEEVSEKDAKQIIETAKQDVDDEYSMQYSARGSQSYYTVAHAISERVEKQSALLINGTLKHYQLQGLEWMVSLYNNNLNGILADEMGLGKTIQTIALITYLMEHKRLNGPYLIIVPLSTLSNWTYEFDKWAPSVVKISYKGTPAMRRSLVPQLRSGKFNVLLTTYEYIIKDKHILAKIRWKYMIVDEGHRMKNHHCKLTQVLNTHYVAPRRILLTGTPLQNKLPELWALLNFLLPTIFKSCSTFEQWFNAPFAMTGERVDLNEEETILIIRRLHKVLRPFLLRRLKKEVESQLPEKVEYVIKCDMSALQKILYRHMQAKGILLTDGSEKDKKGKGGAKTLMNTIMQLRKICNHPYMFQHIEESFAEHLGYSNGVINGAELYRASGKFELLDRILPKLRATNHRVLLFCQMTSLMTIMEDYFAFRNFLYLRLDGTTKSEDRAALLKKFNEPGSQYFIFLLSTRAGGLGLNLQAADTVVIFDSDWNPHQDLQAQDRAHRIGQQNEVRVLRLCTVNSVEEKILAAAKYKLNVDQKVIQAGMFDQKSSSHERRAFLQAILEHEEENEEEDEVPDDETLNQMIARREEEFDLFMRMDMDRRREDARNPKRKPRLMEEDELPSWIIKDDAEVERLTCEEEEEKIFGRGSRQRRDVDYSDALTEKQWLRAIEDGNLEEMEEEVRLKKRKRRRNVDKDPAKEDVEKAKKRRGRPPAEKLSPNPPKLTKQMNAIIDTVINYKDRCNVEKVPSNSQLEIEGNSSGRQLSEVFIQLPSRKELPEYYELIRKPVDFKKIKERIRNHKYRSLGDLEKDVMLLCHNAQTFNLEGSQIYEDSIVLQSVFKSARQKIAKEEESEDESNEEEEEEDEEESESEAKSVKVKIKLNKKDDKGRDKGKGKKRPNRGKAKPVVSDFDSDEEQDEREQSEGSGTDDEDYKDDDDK
- method-notes: SMARCA2 ATPase activity assay (ADP-Glo, chicken mononucleosome substrate)
- Format: biochemical
- protocol-conditions: Table 3.1; ATPase assay, enzyme 5 nM, ATP 250 uM, chicken mononucleosome 10 nM, 30 min preincubation
test-readout: IC50 (µM)
Write the answer as a number in µM, unit excluded.

Consider the following illustrative entries.
CNc1c(C(=O)Nc2cc(F)c(=O)n(CC(F)F)c2)sc(Cl)c1Cl | 7.46
O=C(Nc1ccc(=O)n(CC(F)(F)F)c1)c1cc(Cl)c(Cl)s1 | 0.437

Problem: What value of IC50 has been reported for the following compound? CCn1cc(NC(=O)c2cnc(Cl)s2)cc(Cl)c1=O
Solution: 0.356

Problem: Same read-out for O=C(Nc1cc(F)c(=O)n(CCF)c1)c1cc(Cl)c(Cl)[nH]1 ?
Solution: 0.194

Problem: Please do the same for Cn1c(C(=O)Nc2cc(F)c(=O)n(CC(F)(F)F)c2)cc(Cl)c1C#N as well.
Solution: 0.224

Problem: Same question, N#Cc1[nH]c(C(=O)Nc2cc(F)c(=O)n(CC(F)(F)F)c2)cc1Cl this time
Solution: 0.0389

Problem: CCn1cc(NC(=O)c2cc(C#N)c(C#N)s2)ccc1=O , same question.
Solution: 0.114

Problem: Same question for CCn1cc(NC(=O)c2cc(Cl)c(Cl)s2)cc(Cc2cnn(C)c2)c1=O please.
Solution: 15.6

Problem: // repeat for CCn1cc(NC(=O)c2cc(Cl)c(OC)s2)ccc1=O and report
Solution: 39.3

Problem: Now consider Cn1c(C(=O)Nc2cc(F)c(=O)n(CC(F)(F)F)c2)cnc1C#N .
Solution: 1.45

---

- tested-on: FL-SMARCA4 (Homo sapiens)
- Sequence (P51532 whole entry): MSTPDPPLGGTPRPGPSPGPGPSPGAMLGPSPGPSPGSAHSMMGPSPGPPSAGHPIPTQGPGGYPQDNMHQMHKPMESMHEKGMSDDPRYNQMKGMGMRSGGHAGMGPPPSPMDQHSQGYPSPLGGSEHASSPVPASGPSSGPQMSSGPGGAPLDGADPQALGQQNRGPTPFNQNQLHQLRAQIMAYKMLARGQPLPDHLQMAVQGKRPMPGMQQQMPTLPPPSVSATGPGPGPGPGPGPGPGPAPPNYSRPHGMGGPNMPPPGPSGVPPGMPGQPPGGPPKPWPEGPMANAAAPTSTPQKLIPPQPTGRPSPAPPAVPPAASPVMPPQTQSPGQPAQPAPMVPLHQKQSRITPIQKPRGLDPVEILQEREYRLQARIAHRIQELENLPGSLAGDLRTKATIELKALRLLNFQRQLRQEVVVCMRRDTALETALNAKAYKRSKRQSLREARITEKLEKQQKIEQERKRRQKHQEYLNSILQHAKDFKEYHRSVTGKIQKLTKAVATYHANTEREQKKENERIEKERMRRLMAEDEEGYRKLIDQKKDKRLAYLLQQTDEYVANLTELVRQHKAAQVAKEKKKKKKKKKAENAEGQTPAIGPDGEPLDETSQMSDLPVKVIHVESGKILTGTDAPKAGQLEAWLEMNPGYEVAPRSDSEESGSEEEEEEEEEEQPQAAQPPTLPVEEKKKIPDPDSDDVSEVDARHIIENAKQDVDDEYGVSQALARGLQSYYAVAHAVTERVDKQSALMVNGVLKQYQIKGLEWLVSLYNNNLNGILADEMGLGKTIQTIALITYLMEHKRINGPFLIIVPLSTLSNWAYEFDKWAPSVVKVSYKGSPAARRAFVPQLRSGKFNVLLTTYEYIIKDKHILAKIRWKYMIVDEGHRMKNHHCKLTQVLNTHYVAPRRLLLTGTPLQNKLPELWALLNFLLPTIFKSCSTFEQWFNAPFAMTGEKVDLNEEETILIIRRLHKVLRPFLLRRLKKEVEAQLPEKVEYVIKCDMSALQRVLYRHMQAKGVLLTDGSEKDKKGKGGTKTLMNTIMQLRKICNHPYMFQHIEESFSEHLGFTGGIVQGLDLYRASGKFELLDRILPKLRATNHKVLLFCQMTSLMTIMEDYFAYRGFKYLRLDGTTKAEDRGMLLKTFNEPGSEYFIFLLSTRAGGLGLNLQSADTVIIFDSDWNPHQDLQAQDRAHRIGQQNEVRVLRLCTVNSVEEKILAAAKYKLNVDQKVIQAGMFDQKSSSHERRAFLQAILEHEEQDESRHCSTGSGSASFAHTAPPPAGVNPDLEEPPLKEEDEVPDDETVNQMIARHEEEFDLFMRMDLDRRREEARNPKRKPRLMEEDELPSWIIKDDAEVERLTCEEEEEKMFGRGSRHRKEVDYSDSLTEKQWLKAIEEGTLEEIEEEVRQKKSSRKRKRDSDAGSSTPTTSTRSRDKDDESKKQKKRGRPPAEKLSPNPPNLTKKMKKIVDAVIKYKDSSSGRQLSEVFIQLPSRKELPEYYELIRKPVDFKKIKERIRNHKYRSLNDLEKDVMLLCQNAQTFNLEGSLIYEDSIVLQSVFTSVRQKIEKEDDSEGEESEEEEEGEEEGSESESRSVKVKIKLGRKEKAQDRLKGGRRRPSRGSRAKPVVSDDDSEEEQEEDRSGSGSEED
- method-notes: SMARCA4 ATPase activity assay (ADP-Glo, chicken mononucleosome substrate)
- protocol-conditions: FL-SMARCA4 IC50, Table 3.2; ATPase assay, enzyme 5 nM, ATP 250 uM, chicken mononucleosome 10 nM, 30 min preincubation
Each entry belongs to exactly one class, chosen by where its IC50 falls: class 0 = under 200 nM, class 1 = from 200 nM up to 6000 nM, class 2 = 6000 nM and over

CCn1cc(NC(=O)c2csc(Cl)n2)ccc1=O | class 2
O=C(Nc1ccc(=O)n(CCO)c1)c1cc(Cl)c(Cl)s1 | class 2
O=C(Nc1cc(F)c(=O)n(CCF)c1)c1cc(Cl)c(C(F)(F)F)s1 | class 1
O=C(Nc1cc(F)c(=O)n(CCn2ccnc2)c1)c1cc(Cl)c(Cl)s1 | class 2
O=C(Nc1cc(Cl)c(=O)n(CC(F)(F)F)c1)c1cnc(Cl)s1 | class 1
CCn1cc(NC(=O)c2cc(Cl)n[nH]2)cc(F)c1=O | class 1
O=C(Nc1cc(F)c(=O)n(CC(F)F)c1)c1cc(C#CC2COC2)c(Cl)s1 | class 0
O=C(Nc1cc(F)c(=O)n(CCF)c1)c1cc(Cl)n[nH]1 | class 1
O=C(Nc1cc(F)c(=O)n(CC(F)F)c1)c1cc(F)c(Cl)s1 | class 0
CCn1cc(NC(=O)c2cc(Cl)c(Cl)[nH]2)cc(Cl)c1=O | class 2

Problem: Sort O=C(Nc1ccc(=O)n(CC(F)F)c1)c1cc(Cl)c(Cl)s1 into one of the categories.
Solution: class 1

Problem: Here is the next compound: O=C(Nc1cc(F)c(=O)n(CCF)c1)c1cc(F)c(C(F)F)s1
Solution: class 0

Problem: And the next one, O=C(Nc1ccc(=O)n(CC(F)(F)F)c1)c1cc(Cl)c(Cl)[nH]1 ?
Solution: class 2

Problem: What would you report for Cn1c(C(=O)Nc2cc(F)c(=O)n(CCF)c2)cnc1Cl ?
Solution: class 2

---

The reader will find reported pIC50 values listed item by item below.
- tested-on: UniProtKB P51532
- method-notes: SMARCA4 ATPase activity assay (ADP-Glo, chicken mononucleosome substrate)
- protocol-conditions: FL-SMARCA4 IC50, Table 3b.2; SMARCA4 5 nM, ATP 250 uM, mononucleosome 10 nM
pIC50: −log10 of the molar value.

The cases that follow already have their pIC50 on record.
CCn1cc(NC(=O)c2ccc(Cl)cc2)ccc1=O [Compound 7b] | < 4.30
CCn1cc(NC(=O)[C@@H]2CCC[C@H](Cl)C2)ccc1=O [Compound 13b] | < 4.30

Problem: Would you mind telling me what pIC50 value was observed for CC(=O)Nc1ccc(C(=O)Nc2cc(F)c(=O)n(CCF)c2)cc1Cl [Compound 22b] ?
Solution: < 4.30
